test: FRG1 promoter luciferase signal modulators, primary screen, FRG1 inhibition for FSHD, cell-based, C2C12 myotubes, firefly/Renilla luciferase, luminescence (AID 1084); details: higher = more signal, called active from +8 up or from −8 down
Entries and their z-score values follow.
Reply with just the number.

Illustrative cases are given below, each with its answer.
compound=CN(C)CCCNC(=O)[C@@]1(c2ccc([N+](=O)[O-])cc2)CC(=O)N(C2CCCCC2)[C@@H]1c1ccc(CO)cc1I assay_metric=z-score test_result=-0.635
compound=COc1ccc(CCNC(=O)[C@@]2(Sc3ccc(C)cc3)CC(=O)N(C3CCCCC3)[C@@H]2c2ccc(CO)cc2I)cc1 assay_metric=z-score test_result=-1.57
compound=C=CCOC(=O)[C@H]1[C@@H]2C(=O)O[C@@H](c3ccccc3)[C@@H](c3ccccc3)N2[C@@H](c2ccc(OCCOC(=O)[C@@H]3C[C@@H]4C(=O)N5CCC[C@H]5C(=O)N4[C@@H]3c3cccc(OCCO)c3)cc2)[C@]12C(=O)Nc1ccccc12 assay_metric=z-score test_result=0.999
compound=COC(=O)[C@@]1(Cc2ccc(F)cc2)[C@H]2c3cc(C(=O)N4CCCC4)n(Cc4ccc(C)o4)c3C[C@H]2CN1C(=O)c1ccccc1 assay_metric=z-score test_result=1.62
compound=COCCOC(=O)N1C(=O)[C@@]2(c3ccccc31)[C@H](c1ccc(O)cc1)N1[C@H](c3ccccc3)[C@H](c3ccccc3)OC(=O)[C@H]1[C@@H]2C(=O)NC[C@H](O)c1ccccc1 assay_metric=z-score test_result=-0.567
compound=COC(=O)[C@@]1(Cc2ccc(OC)cc2)[C@H]2c3cc(C(=O)N(C)C)n(CCN4CNCC4=O)c3C[C@H]2CN1C(=O)c1ccccc1 assay_metric=z-score test_result=0.124

Query :: I'd like to know its z-score. The compound in question is `CCCC=C(CCC)[C@@H](NC(=O)Oc1ccc(F)cc1)c1ccc(C(=O)OC)cc1`
Result :: -3.81

Query :: How about `C[N+](C)(C)CCCC[C@@H]1NC(=O)[C@@H]2C[C@H](C(=O)NCCCCCN)[C@H](c3cccc(OCCO)c3)N2C1=O` ?
Result :: -0.992

Query :: Another compound: `O=C(c1ccccc1)N1Cc2ccccc2[C@@H]2OC(c3ccc(OCCCO)cc3)=N[C@]2(Cc2ccccc2)C1=O`
Result :: -1.05

Query :: // repeat for CC(CO)N1C(=O)[C@@H]2C3C(=O)OCCC/C=C\[C@H]3OC23C=CCN(c2ccc4ccccc4c2)C(=O)[C@@H]13 (some centres undefined) and report
Result :: -0.775
